Known IC50 of a selection of compounds
systemTested: Smo D473H mutant (Homo sapiens, UniProt Q99835, D473H)
Sequence (Q99835 28-787 D473H): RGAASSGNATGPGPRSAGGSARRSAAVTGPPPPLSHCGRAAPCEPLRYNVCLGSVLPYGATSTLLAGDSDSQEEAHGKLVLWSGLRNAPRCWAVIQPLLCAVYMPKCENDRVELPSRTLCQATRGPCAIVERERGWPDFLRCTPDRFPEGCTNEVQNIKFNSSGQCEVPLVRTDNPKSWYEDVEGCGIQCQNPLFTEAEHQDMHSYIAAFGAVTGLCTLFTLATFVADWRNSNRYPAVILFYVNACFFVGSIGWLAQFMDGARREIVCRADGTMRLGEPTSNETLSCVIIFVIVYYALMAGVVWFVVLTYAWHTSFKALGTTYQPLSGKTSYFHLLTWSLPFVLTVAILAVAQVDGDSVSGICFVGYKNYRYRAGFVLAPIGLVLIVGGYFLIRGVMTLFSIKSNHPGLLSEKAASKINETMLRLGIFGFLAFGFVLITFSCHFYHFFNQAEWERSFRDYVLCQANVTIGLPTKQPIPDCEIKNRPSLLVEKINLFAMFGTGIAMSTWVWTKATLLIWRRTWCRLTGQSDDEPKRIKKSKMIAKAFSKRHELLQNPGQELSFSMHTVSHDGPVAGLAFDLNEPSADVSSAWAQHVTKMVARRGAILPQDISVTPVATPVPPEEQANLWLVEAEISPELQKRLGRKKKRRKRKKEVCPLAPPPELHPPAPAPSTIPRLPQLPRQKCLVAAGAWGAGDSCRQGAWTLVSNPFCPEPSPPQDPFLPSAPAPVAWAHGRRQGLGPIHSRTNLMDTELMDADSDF
methodNotes: Reporter assay of C3H10T1/2-Gli-Luc cells transfected with Smo D473H mutant, without SAG
testSettings: C3H10T1/2 cells transfected with pLPCX-SMO-D473H, no SAG, 48 hr; read-out: Inhibition of C3H10T1/2-Gli-Luc-Smo-D473H [IC50

Below: 2 compounds and their reported IC50.
>>> df
                                querysmiles  metric   valuemeasured
0  CSc1cnc(Nc2ccc(C(=O)Nc3ccccc3)cc2)nc1-c1cccnc1F    IC50  100 to 1000 nM
1  CSc1cnc(Nc2ccc(C(=O)Nc3cc(CN4CCCCC4)ccc3C)cc2)nc1-c1ccc(F)cc1    IC50  100 to 1000 nM

Could you tell me which IC50 is on file for "CSc1cnc(Nc2ccc(C(=O)Nc3ccc(C#N)cc3)cc2)nc1-c1cccnc1F" ?
100 to 1000 nM

----------
systemTested: Smo wild type (Homo sapiens, UniProt Q99835)
Sequence (Q99835 28-787): as the sequence (Q99835 28-787 D473H) above, with H446D counted along it
methodNotes: Reporter assay of C3H10T1/2-Gli-Luc cells transfected with wild-type Smo, without SAG
testSettings: C3H10T1/2 cells transfected with pLPCX-SMO, no SAG, 48 hr; read-out: Inhibition of C3H10T1/2-Gli-Luc-Smo-WT [IC50
pIC50: −log10 of the molar value.
metric: pIC50

Below: 5 compounds and their reported pIC50.
In [3]: df
Out[3]:
                                querysmiles                              systemtested  valuemeasured
0  COc1cccc(C)c1NC(=O)c1ccc(Nc2ncc(SC)c(-c3cccnc3F)n2)c(F)c1  Smo wild type (Homo sapiens, UniProt Q99835)         > 7.00
1  COc1cccc(C)c1NC(=O)c1ccc(Nc2ncc(SC)c(-c3ccc(F)nc3)n2)c(F)c1  Smo wild type (Homo sapiens, UniProt Q99835)   6.00 to 7.00
2  CCOc1cnc(Nc2ccc(C(=O)Nc3cc(CN4CCOCC4)ccc3C)cc2)nc1-c1ccc(F)cc1  Smo wild type (Homo sapiens, UniProt Q99835)         > 7.00
3  CSc1cnc(Nc2ccc(C(=O)Nc3cc(CN4CCOCC4)ccc3C)cc2)nc1-c1ccc(OC(F)(F)F)cc1  Smo wild type (Homo sapiens, UniProt Q99835)         > 7.00
4  CSc1cnc(Nc2ccc(C(=O)Nc3cc(CN4CCOCC4)ccc3F)cc2)nc1-c1ccc(F)cc1  Smo wild type (Homo sapiens, UniProt Q99835)         > 7.00

Could you tell me which pIC50 is on file for "CSc1cnc(Nc2ccc(C(=O)Nc3cc(CN(C)C)ccc3C)cc2)nc1-c1ccc(OC(F)(F)F)cc1" ?
6.00 to 7.00

Could you tell me which pIC50 is on file for "CSc1cnc(Nc2ccc(C(=O)Nc3cc(CN4CCN(C)CC4)ccc3C)cc2F)nc1-c1cnn(C)c1" ?
> 7.00

Could you tell me which pIC50 is on file for "CSc1cnc(Nc2ccc(C(=O)Nc3cc(CN4CCOCC4)ccc3C)cc2)nc1-c1ccc(C(F)(F)F)nc1" ?
> 7.00

Could you tell me which pIC50 is on file for "CSc1cnc(Nc2ccc(C(=O)Nc3cccc(CN4CCOCC4)c3)cc2)nc1-c1ccc(F)cc1" ?
> 7.00

Could you tell me which pIC50 is on file for "CSc1cnc(Nc2ccc(C(=O)Nc3cccc(CN4CCOCC4)c3)cc2)nc1-c1ccc(C(F)(F)F)nc1" ?
> 7.00

Could you tell me which pIC50 is on file for "CSc1cnc(Nc2ccc(C(=O)Nc3cc(CN4CCOCC4)ccc3C)cc2F)nc1-c1cnn(C)c1" ?
> 7.00

Could you tell me which pIC50 is on file for "CCOc1cnc(Nc2ccc(C(=O)Nc3cc(CN4CCN(C)CC4)ccc3C)cc2)nc1-c1ccc(F)cc1" ?
> 7.00

Could you tell me which pIC50 is on file for "CSc1cnc(Nc2ccc(C(=O)Nc3cc(CN(C)C)ccc3C)cc2)nc1-c1ccc(C(F)(F)F)cc1" ?
6.00 to 7.00
